Ref: the EternaBench riboswitch data

So I've got a bunch of sequences here, and I need their apparent Kd values.
# Tested on: MS2 coat protein
# assayOverview: apparent Kd, MS2 coat protein; higher = weaker binding; RNA-MaP array; FMN 200 µM where present
# testContext: ligand present: flavin mononucleotide; designed as: ON switch for flavin mononucleotide
One number for each entry, in nM.

sequenceInput | unitsOfMeasure | apparent Kd
UAAGUCUAAUGAGGAUAUCGUUAUCAAAGAUAAUGAGAAGGCAUACAAUCAUGAGGACAUGAGGAUCACCCAUGUUGUGACCAU | nM | 17.6

I would be grateful if you could provide apparent Kd for each of the following entries.
1. CGGGCAUAUCGAGGAUAUAAGUCUAGGACAUGAGGAUCACCCAUGUAUGUCUUAGAAGGCGAUAUGCCCAGCCUGUUACAGGCA
2. CUGUCGAUAUCAGGAUAUCGUUUACAUACAUGAGGAUCACCCAUGUAGAUGAUCAGCCUAAUAUACGAGAAGGGAUAUCGAUAG
3. GGAGCCCAGUCAGGAUAUGUAACGCUAAGGCUGUUACAUGAGGAUCACCCAUGUUUCACCGUGAAACAGAAGGGACAAUUGGCG
4. GUGGUCAGACAUGAGGAUCACCCAUGUGGAAUAAAUAAGGUACAGGAUAUCUAAUAUAGGAUAUAAGAGAAGGGUAGGUUGGUG
5. CCCUAAUAUCGAGGAUAUGUCUAGACACAUGAGGAUCACCCAUGUAUGUGUAUAGAAGGCGAUAUUAACAGCAUGUUACAUCCC
6. CCGGAUACGGGUAGCCUGACAUGAGGAUCACCCAUGUAAUACGAGGAUAUGGAUCCUAAUUGGAUCCAGAAGGUGUCAGGCUAC
7. GGAGCCGGUACUGAGGAUAUUCAUAUUAAAACAUGAGGAUCACCCAUGUAGGCCAGAAGGCCUUGGGAGAAGGCGGACCAGCUCG
8. GGGUACCUCGGAGGAUAUCAUGUAAAUACAUGAGGAUCACCCAUGUCGAUGGAGACAUCGGAGAUUGAGAAGGCCGAUGUACCG

Result:
[6.01, 8.59, 147, 78.4, 21.7, 734, 32.8, 9.32]

====

# Tested on: MS2 coat protein
# assayOverview: apparent Kd, MS2 coat protein; higher = weaker binding; RNA-MaP array
# testContext: ligand present: flavin mononucleotide; designed as: OFF switch for flavin mononucleotide
measurementName: apparent Kd (nM)
Numbers only, in nM.

Quick batch: apparent Kd for everything below.
1. GCAGUUGGUCUCUCACAUGAGGAUCACCCAUGUUCUUAGUUUCAGGAUAUAUGAGCGAAUUGCGGAUAGAAGGGAAACAGUCAC
2. GAAAGGGCAAAGAAGGAGGUCCGAGCUCGGCGCCUAGGAUAUUUCUUAACCACAUGAGGAUCACCCAUGUUGACUGUAGUGUGA
3. GCCUAGCUAGGAUAUACCAGAGUGUAUACUUAUGUGGAUCGACAUGAGGAUCACCCAUGUAGAAGGAGCAAGAU
4. UGAACCGGAAAGAAGGCCUUGCUUUAACGUACAGGAGGAUAUUUCCUAUUUGUGAGCCUUGACAUGAGGAUCACCCAUGUAUCG
5. AAUUGAAUGGUAAGGAUAUAGGGUCGCGCCGAACGCUAGAAGGUACAUGAGGAUCACCCAUGUUGUGCGUCUUC
6. AUGAUCGAACAGAAGGCACGGUGACAGUUAAAGUGAGGAUAUGUAGACAUGAGGAUCACCCAUGUUACUAUACACGGGUCUAUC

Result:
1. 49.7
2. 29
3. 58
4. 116
5. 17.7
6. 45.9

====

# Test system: MS2 coat protein
# assayOverview: apparent Kd, MS2 coat protein; higher = weaker binding; RNA-MaP array; FMN 200 µM where present
# testContext: ligand present: flavin mononucleotide; designed as: OFF switch for flavin mononucleotide
Would you mind labelling by apparent Kd? At or over 40 nM is T, under is F.

// known answers, use as guide
sequenceInput | labelClass
UGUGACAUGAGGAUCACCCAUGUAGAGGAUAUAGAGAUGAUGUUAGAGAAGAAUGUGUAGUAAGACUAGAAGGCUAUGUGUGUA | F
AGAGUGAUUACCUCGGUCCCACAUGAGGAUCACCCAUGUAACAAGGAUAUCGCUCCAAAUGGAAGUGAGAAGGUGUCUCAUGUC | T
UAUAAUCGAGGAUAUACAUGAGGAUCACCCAUGUGUUGCCGCGUGAUGUGUUUGUCAGGUAGAAGGCGAUUAUA | T
GAGAUGUGAGGAUAUCUAGACCGCGGAAGAGCCGCAGUCCGAGAGAAGGCACAUGAGGAUCACCCAUGUGAUGA | T
GGGCCCGGUGUGAGGAUAUUGGGUCUGAAAGGGCUCGAGAAGGCACAUGAGGAUCACCCAUGUAAGCCGGGCCC | F
GUGUUUGAUGAGGAUAUCGUUGUGGGUAUAUAGCGAGAAGGCAUUACAUGAGGAUCACCCAUGUAGUGUGGGUU | T

Alright, here's another sequence for you.
Q: Would you say `GGAUCGAAUGUGAGGAUAUGCAGGUCCUUGGAUCUGCAGAAGGCACAUGAGGAUCACCCAUGUGACCAAGAUCC` shows apparent Kd at minimum 40 nM?
Result: T

====

# Tested on: MS2 coat protein
# assayOverview: apparent Kd, MS2 coat protein; higher = weaker binding; RNA-MaP array; tryptophan 2.4 mM where present
# testContext: ligand present: tryptophan; designed as: ON switch for tryptophan
Outcome: YES for apparent Kd of at least 20 nM; NO for anything lower.

Some solved entries appear below for comparison.
sequenceInput | testedSystem | labelClass
UGUCAGCGAAAGUUGACAUGUCUUACCGGUCGAGGACCGGUACGGCCGCCACUCGAUCACUCGCACAUGAGGAUCACCCAUGUUG | MS2 coat protein | NO
UGUAUUACGAAAGUAGUACAUCGUGUUCGACGAGGACCGGUACGGCCGCCACUCGGACAUGAGGAUCACCCAUGUAGCGAAAGCU | MS2 coat protein | YES
CGCCACUCGAGUGAUCCUCACGAGUGGCUACGAGGACCGGUACGGCCGCCACUCGAAUUAACAUGAGGAUCACCCAUGUAAUCUA | MS2 coat protein | YES
AAUAUAAUAGACUCGUUUUAGUAUUUGGAACGAGGACCGGUACGGCCGCCACUCGUGAUUUACAUGAGGAUCACCCAUGUUAGCA | MS2 coat protein | NO
GGAAACCCGACGGCCGCCACUAACGGUCUCAAAAGAGGUUGAACACAUGAGGAUCACCCAUGUAAUAGGACCGGGUCGUGUGAAA | MS2 coat protein | NO

Q: Check this sequence for apparent Kd at or above 20 nM: `UGUCAUGGAAACAUGACAGGUCUUACCGGUCGAGGACCGGUACGGCCGCCACUCGAUUGGUGGCACAUGAGGAUCACCCAUGUUA`
Result: YES

Q: Assess whether reported apparent Kd for `AGCCACUCGAGUGAUCCUCACGAGUGGCUACGAGGACCGGUACGGCCGCCACUCGAAUUAACAUGAGGAUCACCCAUGUAAUCAU` sits at 20 nM or higher.
Result: YES

Q: Confirm if apparent Kd reported for the sequence `GCUACAUGAGGAUCACCCAUGUAUGCGAGCCGAGGACCGGUACGGCCGCCACUCGCUUAACAUGAGGAUCACCCAUGUUUCUCGG` is 20 nM or above.
Result: YES

Q: Check if apparent Kd >= 20 nM (inclusive). Item: `UGUCAGCGAAAGUUGACAUGUCUUGCUGGUCGAGGACCGGUACGGCCGCCACUCGAUCUCUCGCACAUGAGGAUCACCCAUGUUG`
Result: NO

Q: Confirm if apparent Kd reported for the sequence `AACAUGAGGAUCACCCAUGUACAUUUCGAUCGAGGACCGGUACGGCCGCCACUCGAAAACAUGAGGAUCACCCAUGUUCAACAGG` is 20 nM or above.
Result: YES

Q: Please check the record `UGUCAGCGAAAGUUGACAUGUCUUACCGGUCGAGGACCGGUACGGCCGCCACUCGAUCACUCGCACAUGAGGAUCACCCAUGUCG` and state if its apparent Kd is at or above 20 nM.
Result: NO

Q: Is it the case that `GAGUCCGCGGCGGCCGCCACUCGCGAUAUAACAUGAUAUCAGGACAUGAGGAUCACCCAUGUCACGAGGACCGGGCCGAUCCUCA` has apparent Kd reaching or exceeding 20 nM?
Result: NO

Q: Hello, I need to know if `AUAUAUACAUGAGGAUCACCCAUGUUAUUUCGAGGACCGGUACGGCCGCCACUCGAUAGAGUGGAAGUAACAUUUGUUAGAUGAU` has measured apparent Kd not below 20 nM. Thanks!
Result: NO

Q: Could you please find out whether `AUACAUGAGGAUCACCCAUGUGAUGGCCGGCGAGGACCGGUACGGCCGCCACUCGUGAUCCGUCCUGAAAGCAAAGCUCUCAACA` has apparent Kd that meets 20 nM or exceeds it?
Result: YES
